pEC50 values for the molecules below.
System: GPR139 (Homo sapiens)
Sequence (Q6DWJ6 1-353): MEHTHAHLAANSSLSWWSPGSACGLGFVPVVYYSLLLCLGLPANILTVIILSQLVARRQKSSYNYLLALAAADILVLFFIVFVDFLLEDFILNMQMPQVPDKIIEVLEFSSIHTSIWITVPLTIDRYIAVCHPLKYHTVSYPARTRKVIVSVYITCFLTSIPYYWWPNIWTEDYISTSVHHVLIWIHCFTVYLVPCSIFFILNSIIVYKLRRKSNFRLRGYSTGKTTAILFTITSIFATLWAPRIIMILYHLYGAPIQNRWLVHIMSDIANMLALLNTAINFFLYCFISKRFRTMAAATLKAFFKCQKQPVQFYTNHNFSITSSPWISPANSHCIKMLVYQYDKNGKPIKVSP
Assay Summary: GPR139 Agonist titration / agonist counterscreen assay (calcium detection, HEK-GPR139 cells)
Type: cell-based
Set-up: expressed in transfected cells; host or cells: HEK Aequorin cells, Maxcyte transient transfection
Setup Conditions: GPR139 Agonist Activity; HEK-GPR139 cells; read-out: EC50
Method: GPR activity was assessed using a calcium detection assay. […] Negative control samples were treated with DMSO. […] Intracellular calcium was measured using Calcium 5.
// pEC50: -log10(molar conc.)

>>> observed_value("O=C(CCc1nc2ccccc2s1)NNC(=O)CSc1ccccc1F [SR-01000069574]")
6.47
>>> observed_value("COc1cc(C(=O)NNC(=O)CSc2ccc(C)cc2)cc(OC)c1C [SR-01000070170]")
6.33
>>> observed_value("COc1ccc(CCN2CC3=C(C2=O)C(c2ccc(F)c(F)c2)NC(=O)N3)cc1 (stereo not drawn) [SR-01000335002]")
6.37
>>> observed_value("CC1CCCCN1C(=O)CN1C(=O)C2(CCc3ccccc3C2)NC1=S (stereo not drawn) [SR-01000044433]")
6.05
>>> observed_value("CCOC(=O)C1CCN(C(=O)C2CC(Cc3cccc4ccccc34)=NO2)CC1 (stereo not drawn) [SR-01000185621]")
5.89

# input Look up pEC50 of CN(C)CCOc1cc(NC(=O)C2COc3ccccc3C2)ccc1-c1cn[nH]c1.O=C(O)C(F)(F)F.O=C(O)C(F)(F)F (stereo not drawn) [SR-00000004123] and report it.
# output 6.07

====

This section presents compounds with their documented Averaged Max % Response (±St. Dev.) values.
System: GPR139 (Homo sapiens, UniProt Q6DWJ6)
Sequence (Q6DWJ6 1-353): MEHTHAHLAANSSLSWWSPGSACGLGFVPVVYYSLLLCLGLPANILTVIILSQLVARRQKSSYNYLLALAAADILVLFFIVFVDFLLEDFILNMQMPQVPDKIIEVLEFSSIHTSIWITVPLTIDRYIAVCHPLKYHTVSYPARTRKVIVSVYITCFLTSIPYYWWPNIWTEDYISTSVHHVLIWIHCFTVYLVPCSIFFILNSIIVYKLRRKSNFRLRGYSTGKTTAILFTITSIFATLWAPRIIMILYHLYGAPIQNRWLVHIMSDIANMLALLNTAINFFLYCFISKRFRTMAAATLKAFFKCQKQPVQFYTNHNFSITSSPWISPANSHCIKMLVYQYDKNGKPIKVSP
Assay Summary: GPR139 Agonist titration / agonist counterscreen assay (calcium detection, HEK-GPR139 cells)
Assay type: cell-based
Design: expressed in transfected cells; host or cells: HEK Aequorin cells, Maxcyte transient transfection
Setup Conditions: GPR139 Agonist Activity; activity relative to known control
Quick note: give the figure in %, leave out the unit.

>>> observed_value("CC1=CN=C(CCc2ccc(F)c3ccccc23)C1")
96.70
>>> observed_value("C#CC1=C(CCCc2ccc(CC)cc2)CC(CCc2ccccc2CC)=C1")
87.50

# input Report Averaged Max % Response (±St. Dev.) for CC(C)CN1CCNC(=O)C1CC(=O)NCCCn1ccc2ccccc21 (centres unmarked)
# output 110.06

# input Determine its reported Averaged Max % Response (±St. Dev.): O=C(CN1CC(=O)N(Cc2ccc(O)cc2)C(c2ccccc2Cl)C1=O)NCc1ccco1 (centres unmarked)
# output 95.83

# input Give Averaged Max % Response (±St. Dev.) for the following compound: Cc1cc(Cl)ccc1OCC(=O)NNC(=O)C1CC1c1ccccc1 (centres unmarked)
# output 114.27
